The reported numbers originate from patent US20250027068.

- TEST_TARGET: pooled human IgG
ENDPOINT_NAME: Enzyme Activity Endpoint Assay (purified): scIgG (ng/µL)
Please reply with the bare figure in ng/µL and do not write the unit itself.

Examples from the recorded data:
PROTEIN	VALUE_OBSERVED
PRT-231 (protein) MEVVEVWPYGQNPNGKTEILSQTEDSESLQRLRDIEDFQAEKKMQNVVYTKWLDGVDVKDHDFRKIVDGNIAYYATPLLNGRGFYDINKDFNRDSDKCAAAVAANMFHYWLDINRDNVDRFLRQNPEKHGIIELPDGQLKLSDFLNTYESDHGYRDKSKLFDFISNNFNGPVWTDKLLDNYINGYAYNYKYGRTIEDPTKNTSKINFFKEVFNEKILTNNHSIRNQNEFSVLLSEALYTGKAIGLSYGPAGLRHSLGHIISVWGADLDADGNVVAIYVTDSDDKKLTIGDERVGLKRYKISTDDENRARLTAYEETHNTGGQIRGLWTLDTGKYAWADYFDKTEQTGTDQAEQLEHHHHHH	313
PRT-125 (protein) MRNATEAYAKEVPHQITSVWTKGVTPLTPEQFRYNNEDVFHAPYLANQGWYDITKTFDGKDNLLCGAATAGNMLHWWFDQNKTEIEAYLSKHPEKQKIIFNNQELFDLKAAIDTKDSQTNSQLFNYFRDKAFPNLSARQLGVMPDLVLDMFINGYYLNVFKTQSTDVNRPYQDKDKRGGIFDAVFTRGDQTKLLTARHDLKNKGLNDISTLIKQELTEGKALALSHTYANVSISHVINLWGADFNAEGNLEAIYVTDSDANASIGMKKYFVGVNAHGHVAISAKKIEGENIGAQVLGLFTLSSGKDIWQKLS	0
PRT-289 (protein) MVTSVWTKGVTPPADFTQGEDVFHAPYVANQGWYDITKTFNGKDDLLCGAATAGNMLHWWFDQNKEYIEAYLKKHPEKQKIMFGDQELLDVRKAINTKGSQKNSELFNYFRDKAFPNLSARRLGVMPDLVLDMFINGYYLNVTKTQTTDVNRTYQEKDKRGGIFDAVFTRGDQSKLLTSRHDFKEKGLKEISDLIKQELTEGKALGLSHTYANVGINHVINLWGADFDSDGNLKAIYVTDSDSNASIGMKKYFVGVNSSGKVAISAKEIKEDNIGAQVLGLFTLSTGQDIWNQTN	114

IN: Requested field: Enzyme Activity Endpoint Assay (purified): scIgG. Item: PRT-142 (protein) MRNATEAYAKEVPHQITSVWTKGVTPLTPEQFRYNNEDVFHAPYLAHQGWYDITKAFDGKDNLLCGAATAGNMLHWWFDQNKTEIEAYLSKHPEKQKIIFNNQELFDLKAAIDTKDSQTNSQLFNYFRDKAFPNLSARQLGVMPDLVLDMFINGYYLNVFKTQSTDVNRPYQDKDKRGGIFDAVFTRGDQTTLLTARHDLKNKGLNDISTIIKQELTEGRALALSHTYANVSISHVINLWGADFNAEGNLEAIYVTDSDANASIGMKKYFVGINAHGHVAISAKKIEGENIGAQVLGLFTLSSGKDIWQKLS
OUT: 0
